# experimentalSystem: UniProt Q9QWJ9
# protocolSummary: Inhibition of biotinylated VEGF-A165 from rat recombinant NRP-1 Fc domain at 100 uM
experimentalReadout: inhibition (%)

{"smilesRecord": "OCCNCc1ccc(OCc2ccccc2)c(Cl)c1", "valueUnit": "%", "valueReported": 45.1}
{"smilesRecord": "COc1cc(CNCCO)cc(Br)c1OCc1ccccc1Cl", "valueUnit": "%", "valueReported": 60.5}
{"smilesRecord": "Cc1cc(O)c(C(=O)COc2ccccc2)c(O)c1", "valueUnit": "%", "valueReported": 55.3}
{"smilesRecord": "CC(=O)Nc1ccc2nc(-c3ccccc3C)oc2c1", "valueUnit": "%", "valueReported": 53.3}
{"smilesRecord": "CC(C)NCc1ccccc1OCc1ccc(Cl)cc1", "valueUnit": "%", "valueReported": 44.8}
{"smilesRecord": "CCOc1cc(CNCCO)ccc1OCc1ccc(Cl)cc1Cl", "valueUnit": "%", "valueReported": 71.5}
{"smilesRecord": "CCNCc1cc(Cl)c(OCc2ccccc2Cl)c(OC)c1", "valueUnit": "%", "valueReported": 59.2}

###

# experimentalSystem: Neuropilin-1 (Rattus norvegicus) (UniProt Q9QWJ9)
# protocolSummary: Inhibition of biotinylated VEGF-A165 from rat recombinant NRP-1 Fc domain at 100 uM
Attribute: inhibition

{"smilesRecord": "CC[C@@H](C)NCCCOc1ccc(Cl)c(C)c1C", "inhibition [%]": 52.3}
{"smilesRecord": "Clc1ccc(COc2ccc(CNC3CC3)cc2)cc1", "inhibition [%]": 47.3}
{"smilesRecord": "CC[C@H](C)c1ccccc1OCCCCN(CC)CC", "inhibition [%]": 41.6}
{"smilesRecord": "CCCNCc1ccc(OCc2ccc(Cl)cc2Cl)c(OC)c1", "inhibition [%]": 60.2}

###

# experimentalSystem: Neuropilin-1 (Rattus norvegicus)
# protocolSummary: Inhibition of biotinylated VEGF-A165 from rat recombinant NRP-1 Fc domain
Catalogue of Ki readings, one per entry.

{"compound": "CCOc1cc(CNCCO)cc(Br)c1OCc1ccc(Cl)cc1Cl", "Ki (µM)": 10.7}
{"compound": "CCOc1cc(CNCc2ccccc2)cc(Cl)c1OCc1ccccc1Cl", "Ki (µM)": 11.3}
{"compound": "COc1cc(CNC(C)c2ccccc2)cc(Br)c1OCc1ccccc1Cl (centres undefined)", "Ki (µM)": 9.4}
{"compound": "COc1cc(CNCCO)cc(Cl)c1OCc1ccc(Cl)cc1Cl", "Ki (µM)": 7.3}
